binders and their reported IC50
Target: HLA B*3501 (human)
Experiment: inhibition of radiolabeled probe peptide binding to purified HLA
Just the number please, in nM, no unit attached.

Some binders with known IC50 results, for comparison:
VPLLAIGCY [VPLLAIGCY (DENV2 2338-2346)] ... 168
MALKDFKEF [MALKDFKEF (DENV4 2083-2091)] ... 77
VATTFVTPM [VATTFVTPM (DENV2 2290-2298)] ... 205
LPVWLAYKVA [LPVWLAYKVA (DENV2 2020-2029)] ... 5100

Let's switch to this binder now.
Prompt line: Record request: IC50 value, item WHYDQDHPY [WHYDQDHPY (DENV2 2787-2795)]
Response line: 7600
